Entries and their measured LYMPHOCYTE follow.
species on record: Rattus norvegicus; experiment: DrugMatrix - Regimen: Daily Repeat; type: toxicity, organism-based, Sprague-Dawley; parameters: regimen Daily Repeat, gender Male, age 6-8 weeks; settings: in vivo, po, 0 mg/kg, 120 h, tissue Blood, route oral GAVAGE, dose level Control, time 5 day, vehicle 100 % WATER
readoutLabel: LYMPHOCYTE (%)

INSERT INTO assay_data (substancesmiles, valueobserved) VALUES
  ('CCC1(c2ccccc2)C(=O)NC(=O)NC1=O', 90.33),
  ('Cc1cn([C@H]2C=C[C@@H](CO)O2)c(=O)[nH]c1=O', 92.17),
  ('CC(Cl)(Cl)Cl', 89.83);
